# credit: the NIST ThermoML archive (doi:10.1016/j.fluid.2011.09.014)

# Measurement protocol: refractive index (Na D-line) (dimensionless)
# Assay context: 293.15 K; 101.33 kPa; Liquid; Standard Abbe refractometry
Quantity name: refractive index
Answers are plain numbers.

// for each molecule in input: emit refractive index
1. CCC(=O)O
2. CCCCCOC(C)=O [pentyl ethanoate]
3. CC(=O)O
4. O=CO

[A]
1: 1.3808; 2: 1.4025; 3: 1.3721; 4: 1.3711

----------
# Assay context: Liquid; Closed cell (Static) method
Quantity name: Normal boiling temperature (°C)
Give bare numbers, in °C.

Look over these answered cases.
[[record]]
compound = "CC(=O)O [acetic acid]"
meas_value = 117.90

[[record]]
compound = "O=CO [formic acid]"
meas_value = 100.90

[[record]]
compound = "CCC(=O)O [propanoic acid]"
meas_value = 141.10


Provide Normal boiling temperature for all items below, preserving their order.
1. CC(C)OC(C)C [diisopropyl ether]
2. CCCCCOC(C)=O [pentyl ethanoate]

[A]
1. 68.20
2. 149.10
